Test system: NCI-H522 lung
assay name: NCI-60 one-dose screen, 48 h (100 = growth as untreated, 0 = no growth, -100 = all killed)
cond: 10 µM unless noted
This is part of a sample that, as a whole, favours compounds with a hit. Of some 83,000 tested, about 20% had one in any assay.

| compound | display unit | growth |
| --- | --- | --- |
| NS(=O)(=O)c1ccc(Nc2nc(N/N=C/C=C/c3ccccc3)nc(Nc3ccccc3)n2)cc1 | % | 66.4 |
| Cc1cc(=O)oc2cc(OCCCOc3ccc(/C=C/C(=O)Nc4ccc(Br)cc4)cc3)ccc12 | % | 80 |
| C/C(CC1(O)C(=O)Nc2ccccc21)=N\O (centres undefined) | % | 91.3 |
| Cn1c2nc3ccccc3c-2cc2ccccc21 | % | 41.6 |
| COC(=O)[C@@H](Cc1c[nH]c2ccccc12)NC(=O)CCCCOc1cc(O)c2c(=O)cc(-c3ccccc3)oc2c1 | % | 86.7 |
| Cc1[nH]c(C(=O)Nc2ccccc2OCc2cccc(C(=O)NC3CCNC3)c2)c(Cl)c1Cl (centres undefined) | % | -0.407 |
| O=C(CCCCCCNC(=O)C(O)(O)C(F)(F)F)Nc1ccc(Br)cc1 | % | -36.6 |
| N#C/C(=C\c1cccc2c1OCO2)C(=O)Nc1sc2c(c1C#N)CCCC2 | % | 94.2 |
| CC(Nc1ncnc2ccc(-c3cnc(N)nc3)cc12)c1ccccc1 (centres undefined) | % | 11.9 |
| CN1CCN(Cc2ccc(NC(=O)c3cncc(C#Cc4cnc5ccc(OC6CCOCC6)nn45)c3)cc2C(F)(F)F)CC1 | % | -75.5 |
| O=S(=O)(NCCCNc1nccc(-c2[nH]c(-c3ccccc3)nc2-c2ccc(F)c(O)c2)n1)c1ccc(C(F)(F)F)cc1 | % | 18.8 |
| CN(C)CC(=O)Nc1nc(-c2cccc(NS(=O)(=O)c3cccc4c(N(C)C)cccc34)c2)cs1 | % | 76.7 |
| CC(C)(C)c1cc(NC(=O)Nc2ccc(-c3cn4c5c(sc4n3)CCc3cn(CCCN4CCCCC4)cc3-5)cc2)no1 | % | -55.3 |
| CN1CCN(Cc2ccc(NC(=O)c3cncc(C#Cc4cnc5ccc(OCC6COC6)nn45)c3)cc2C(F)(F)F)CC1 | % | -70.7 |
| COc1ccc(OC)c(CCn2cncc2-c2c[nH]c3ccc(Cl)cc23)c1 | % | 3.34 |
| COc1ccccc1/C=C1\Oc2ccc(O)c(O)c2C1=O | % | 89.1 |
| COc1ccc([C@H]2C(=O)N(c3cc(OC)c(OC)c(OC)c3)[C@@H]2c2ccc(OC)c(O)c2)cc1 | % | -49.2 |
| Cc1csc(/N=C(N)/N=C(\N)c2cccs2)n1 | % | 98.9 |
| Clc1ccc2[nH]cc(-c3cncn3CCc3ccc4c(c3)OCO4)c2c1 | % | 69.2 |
